Measured Population Hoechst High Intensity Objects (%) accompanies every entry in the list below.
# Test system: Fibroblast
# test.description: Multiplex assay against human fibroblast
# Format: toxicity, cell-based
# test.settings: 12 h, 10 µM, compound concentration 10 uM, replicate 1
measurement.name: Population Hoechst High Intensity Objects (%)

- molecule: "CC(C)(C)c1ccc(CSc2cnn(C(C)(C)C)c(=O)c2Cl)cc1"
  result: "4%"
- molecule: "Cl.Cl.OCCOCCN1CCN(C(c2ccccc2)c2ccc(Cl)cc2)CC1 (stereo not given) [HYDROXYZINE HYDROCHLORIDE]"
  result: "2%"
- molecule: "O=c1nc2[nH]c3ccccc3nc-2c(=O)[nH]1"
  result: "4%"
- molecule: "Nc1nc(-c2ccco2)c2cnn(Cc3ccccc3F)c2n1"
  result: "8%"
- molecule: "Cc1ccc(OCC(O)C(C)NC(C)C)c2c1CCC2.Cl (stereo not given)"
  result: "1%"

Just for reference, ChEMBL document CHEMBL5058577 is where these values come from.
